experiment: qHTS drug screen for cell cycle checkpoint inhibitors in PARPi-resistant BRCA-mutant ovarian cancer cell lines. (AID 1963452); settings: PEO1/OlaR viability, CellTiter-Glo luminescence, 96 h; measured here: PEO4 Z-AUC; stronger effect = lower value
Each item that follows carries a reported Z-AUC.
Please respond with just the number, no unit label.

Recorded Z-AUC, per entry:
CS(=O)(=O)N1CCC(NC(=O)c2[nH]ncc2NC(=O)c2c(Cl)cccc2Cl)CC1 : -1.67
CCOc1cc2ncc(C#N)c(Nc3ccc(F)c(Cl)c3)c2cc1NC(=O)/C=C/CN(C)C : -0.838
COc1cc2ncnc(Nc3cccc(Cl)c3F)c2cc1OC(=O)N1CCN(C)C[C@H]1C : -1.14

// sample Cn1cncc1C(N)(c1ccc(Cl)cc1)c1ccc2c(c1)c(-c1cccc(Cl)c1)cc(=O)n2C (centres undefined) , its Z-AUC was -0.873

For this molecule ( Cc1ccc(S(=O)(=O)Cc2nc(-c3ccc(C(=O)NCc4cccnc4)cc3)oc2C)cc1 ), measured Z-AUC is -2.76

Consider O=C(O)c1ccc(CN2CCC(CN[C@@H]3C[C@H]3c3ccccc3)CC2)cc1 . Its measured Z-AUC is 0.899

Short answer for Clc1cc2c(NC3CCCC3)nnc(-c3ccncc3)c2cc1Cl : Z-AUC was 0.556

Quick note, Z-AUC for COc1ccc(C(=O)C2CCN(CC(=O)N(Cc3nc4c(c(=O)[nH]3)COCC4)CC3CC3)CC2)cc1 landed at -0.695

# Z-AUC (molecule: COc1ccc(Cl)c(Nc2nc3ccccc3nc2NS(=O)(=O)c2cccc(NC(=O)C(C)(C)N)c2)c1 ) is 0.742

----------
molecular target: Furin (Homo sapiens); assay: Furin counterscreen qHTS for Zika virus inhibitors (AID 1347149); settings: furin enzymatic counterscreen, fluorogenic substrate; series mostly up to 114 µM; also: nearly all actives have a fitted effect of over 70% in size
Inconclusive results are not listed. Activity calls are given as the source filed them. Calls follow the shape of the dose curve; as a rule, active = well fitted inhibition curve with a large enough effect; inconclusive = small, poorly fitted or top-dose-only effect; inactive = no such curve, though single readings can be large or run the other way.
# output must be one of 1.0 for active, 0.0 for inactive

Field: example entries. Status: answers known.
O=C(N/N=C/c1ccc(O)c(O)c1)c1cc2ccccc2cc1O : 0.0
CCc1c(-c2ccccc2)c(-c2ccccc2)nn1-c1ccccc1-c1cccc(OCC(=O)O)c1 : 1.0
O=C(O)Cc1ccc2oc(-c3ccc(NC(=O)/C=C/c4ccc(Br)cc4)c(F)c3)nc2c1 : 1.0
CC(C)c1cccc2c(-c3ccccc3)cc(-c3ccc(-c4ccc(C(=O)O)cc4)[nH]3)nc12 : 1.0
O=C(O)/C=C/c1ccc(-c2ccc(O)c(C34CC5CC(CC(C5)C3)C4)c2)cc1 : 1.0
CC1=C(C(=O)OCc2ccccc2)C(c2ccc(-c3ccccc3)cc2)NC(=O)N1CCCCCC(=O)O (stereo not drawn) : 1.0

q: Could you please tell me the result logged for N#CC(c1ccnc(OCc2ccc(CN3CCOCC3)cc2)n1)c1nc2ccccc2s1 (stereo not drawn) in this assay?
a: 0.0

q: What outcome does the record of this test show for CC1(C)CCC(C)(C)c2cc(C3(c4ccc(C(=O)O)cc4)OCCO3)ccc21 ?
a: 0.0

----------
In this section, each of the molecules is paired with its reported max response.
Tested on: KB-3-1
Assay: Cytotoxic Profiling of Annotated Libraries Using Quantitative High-Throughput Screening (AID 1296008); also: % is scaled to controls: 0 for no effect and ±100 for the full control effect; nearly all actives have a fitted effect of over 60% in size
Details: Five cell lines viability, CellTiter-Glo ATP luminescence, 48-72 h; stronger effect = lower value
Description: Cell-based phenotypic screening is a commonly used approach to discover biological pathways, novel drug targets, chemical probes and high-quality hit-to-lead molecules. […] A pintool (Kalypsys) was used to transfer 23 nL of compound solution to the 1536-well assay plates. […] Plates were left at room temperature for 10 min before imaging the ATP-coupled luminescence using a ViewLux microplate imager (PerkinElmer, Waltham, MA).
Inconclusive results are not listed.
Write down the numeric answer in % and omit the unit.

Consider the reported max response for these molecules:
CN1CCN(C(=O)c2ccc3cc(CCNc4ncnc5ccc(C#N)cc45)ccc3c2)CC1 : -26.4
Oc1ccc2nc(CN3CCC(Cc4ccccc4F)CC3)[nH]c2c1 : -7.21
C[C@@H]1O[C@@H](O[C@H]2[C@H](O)[C@@H](O)[C@H](OC[C@H]3O[C@@H](OC(=O)[C@]45CCC(C)(C)C[C@H]4C4=CCC6[C@@]7(C)CC[C@H](O[C@@H]8OC[C@H](O)[C@H](O[C@@H]9O[C@H](CO)[C@@H](O)[C@H](O)[C@H]9O)[C@H]8O)[C@@](C)(CO)C7CC[C@@]6(C)[C@]4(C)CC5)[C@H](O)[C@@H](O)[C@@H]3O)O[C@@H]2CO)[C@H](O)[C@H](O)[C@H]1O (some centres not stated) : 8.88
O=C(OCC1=CC(O)C2C=CO[C@@H](O[C@@H]3O[C@H](CO)[C@@H](O)[C@H](O)[C@H]3O)C12)c1ccccc1 (some centres not stated) : 2.99

Field max response (entry CC1CCC2(C(=O)O)CCC3(C)C(=CCC4C5(C)CCC(OC(=O)/C=C/c6ccccc6)C(C)(C)C5CCC43C)C2C1C (configuration not stated) ) reads 3.54

Field max response (entry CC1(C)CC[C@]2(C(=O)O[C@@H]3O[C@H](CO)[C@@H](O)[C@H](O)[C@H]3O)CC[C@]3(C)C(=CCC4[C@@]5(C)C[C@@H](O)[C@H](O)[C@](C)(C(=O)O)C5CC[C@]43C)C2C1O (some centres not stated) ) reads -4.21

max response reading for CC1=CC(=O)CC(C)(C)C1/C=C/C(C)O[C@@H]1O[C@H](CO)[C@@H](O)[C@H](O)[C@H]1O[C@@H]1OC[C@](O)(CO)[C@H]1O (some centres not stated) : 2.75

Sure, the documented max response for C=C1CCC2C(C)(C(=O)O)CCCC2(C)C1CC/C(=C\CO)CO (configuration not stated) is 8.33

Entry C=CC1C(OC2OC(CO)C(O)C(O)C2O)OC=C(C(=O)OC)C1CC1CC(=O)CC(CCc2ccc(O)cc2)O1 (configuration not stated) — recorded max response = 0.837
